targetEntity: Focal adhesion kinase 1 (Homo sapiens)
assayInfo: small-molecule microarray binders of FAK, primary screen, biochemical, 635/667 nm fluorescence, BSA, DTT (AID 1130);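 further: composite of spot emission at 667 nm and signal to noise over triplicate slides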
testConditions: PTK2 binding, 635 nm fluorescence, higher = more signal
// composite z-score lookup, one value per entry
// no unit, no text: just the number

Use the examples below as a reference point.
compound: Cc1ccccc1C(O)C1C=CC2C(=O)N(c3ccccc3)C(=O)C2N1Nc1ccccc1F (configuration not stated)
reportedValue: 0.622
//
compound: C=CCC(OC(C)=O)[C@@H]1[C@@H](N(Cc2cccc3ccccc23)C(=O)c2ccc(-c3ccccc3)cc2)c2cc(OCCCO)ccc2N1C(=O)c1ccc2ccccc2n1 (some centres not stated)
reportedValue: 0.0785

Give its composite z-score value. Item: COc1cc2c(cc1O)C(c1ccc(CN3CCCC3)cc1)N(Cc1ccc([N+](=O)[O-])o1)CC2 (configuration not stated)
-0.537

Next up: Cc1ccc(S[C@]2(C(=O)NCCN3CCOCC3)CC(=O)N(C3CCCCC3)[C@@H]2c2ccc(CO)cc2I)cc1
1.14

Query CC=CC(O)C1C=CC2C(=O)N(C)C(=O)C2N1NC(=O)OC(C)(C)C (configuration not stated) next
-0.116

Further, for CCCCC(O)C1C=CC2C(=O)NC(=O)C2N1Nc1ccccn1 (configuration not stated) ?
0.205

Can you handle COC(=O)[C@@]1(Cc2ccc(OC)cc2)[C@H]2c3cc(C(=O)N(C)C)n(Cc4ccsc4Br)c3C[C@H]2CN1C(=O)c1ccccc1 next?
0.957

Next up: C=CCC(OC(C)=O)[C@@H]1[C@@H](N(Cc2ccc(-c3cccc(C(F)(F)F)c3)o2)C(=O)Cc2ccc(OC)cc2)c2cc(OCCCO)ccc2N1C(=O)c1ccc2ccccc2n1 (some centres not stated)
-0.236

====

# composite z-score listing for each entry below
assayInfo: small-molecule microarray binders of probe aLefty2, primary screen, biochemical, biotinylated probe, 635/667 nm fluorescence (AID 1094);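 further: score merges spot fluorescence near 667 nm with spot signal-to-noise ratio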
testConditions: higher = more signal
Please state the value as a number alone, without comment.

compound: COc1ccc([Si](C)(C)[C@@H]2[C@@H](CCO)O[C@]3(C(=O)N(Cc4ccccc4)c4ccc(N5C(=O)c6ccccc6Oc6ccccc65)cc43)[C@H]2C)cc1
quantity: composite z-score
reportedValue: -0.136

compound: COCCOC(=O)N1C(=O)[C@@]2(c3cc(C#CCNC(N)=O)ccc31)[C@H](C(=O)NC[C@H](O)c1ccccc1)[C@H]1C(=O)O[C@H](c3ccccc3)[C@H](c3ccccc3)N1[C@@H]2c1ccc(OCCO)cc1
quantity: composite z-score
reportedValue: -0.0083

compound: O=C1OCCC=C[C@H]2OC34C=CCN(CCN5CCOCC5)C(=O)[C@H]3N(CCCO)C(=O)[C@@H]4C12 (some centres not stated)
quantity: composite z-score
reportedValue: -0.257

compound: CCCC=C(CCC)[C@@H](NC(=O)c1ccco1)c1ccc(C(=O)OC)cc1
quantity: composite z-score
reportedValue: 0.198

compound: CC(C)C[C@@H]1NC(=O)[C@@]23C(=O)N[C@@H](Cc4ccccc4)C2[C@H](C)[C@@]2(C)O[C@H]2C3/C=C/C/C=C\CNC(=O)[C@@H](CC(C)C)NC1=O (some centres not stated)
quantity: composite z-score
reportedValue: -0.184

# query: composite z-score of entry COCCOC(=O)N1C(=O)[C@@]2(c3cc(C#CC4=CCCCC4)ccc31)[C@H](c1ccccc1OCCO)N1[C@H](c3ccccc3)[C@H](c3ccccc3)OC(=O)[C@H]1[C@@H]2C(N)=O
-0.107

Could you do the same for CCOC(=O)C1=CC[C@@H](c2ccc(F)cc2)N(S(=O)(=O)c2ccc(C)cc2)[C@H]1c1ccc([N+](=O)[O-])cc1 , please?
0.0322

Now try CO[C@H]1O[C@H](CO)[C@@H](OC(=O)Nc2ccc(C(F)(F)F)cc2)[C@H](OC(=O)Nc2ccccc2-c2ccccc2)[C@H]1OC(=O)Nc1ccccc1-c1ccccc1 .
0.0079

====

assayInfo: small-molecule microarray binders of probe aCHRDL2, primary screen, biochemical, biotinylated probe, 635/667 nm fluorescence (AID 1100)
testConditions: higher = more signal
quantity: composite z-score

For the compound O=C1O[C@H](c2ccccc2)[C@H](c2ccccc2)N2[C@H]1[C@@H](C(=O)N1CCN(c3ncccn3)CC1)[C@]1(C(=O)Nc3ccccc31)[C@H]2c1ccc(O)cc1 , what composite z-score is on record?
0.544

Try CC(C)C[C@@H]1NC(=O)[C@@]23C(=O)N[C@@H](Cc4ccccc4)C2[C@H](C)[C@@]2(C)O[C@H]2C3/C=C/C/C=C\CNC(=O)[C@@H](CC(C)C)NC1=O (some centres not stated) next.
-0.496

Moving on to C/C=C/CN(C(=O)C#Cc1ccccc1)[C@H](CO[Si](C)(C)C(C)(C)C)c1ccccc1
-0.169

Subsequent entry: C=CC[C@@]1(C(=O)N(C)C)N=C(c2ccc(OCCCO)cc2)O[C@@H]1c1ccccc1
0.959

Cool, now CCC[C@@H]1[C@@H](Sc2ccccc2)[C@@H](C(=O)O)[C@H](c2ccc(C)cc2)N1S(=O)(=O)c1ccc(C)cc1
0.284

Would you mind doing CCOC(=O)C1=C(C(=O)OCC)N(S(=O)(=O)CC[Si](C)(C)C)[C@H](c2ccccc2)CC1 as well?
0.845

Further, for C=CC[C@]1(C(=O)NCCCOC)N=C(c2ccc(OCCCO)cc2)O[C@H]1c1ccccc1 ?
1.05

====

assayInfo: anti-His antibody binders, primary screen, artefact control for SMM control protein annotation, biochemical, small-molecule microarray, 635 nm fluorescence (AID 1128);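 further: score merges feature fluorescence with signal-to-noise for each printed compound spot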
testConditions: anti-His Alexa647 antibody binding, higher = more signal
quantity: composite z-score
Give the value as a plain number.

compound: CCOC(=O)C1=CC[C@@H](c2ccccc2)N(S(=O)(=O)c2ccc(C)cc2)[C@H]1C#N
composite z-score: 0.806

Could you tell me which composite z-score is on file for C=CCNC(=O)[C@@H]1[C@H]2C(=O)O[C@H](c3ccccc3)[C@H](c3ccccc3)N2[C@H](c2ccc(O)cc2)[C@@]12C(=O)Nc1ccc(C#CC3(O)CCCCCC3)cc12 ?
0.906

Repeat for the following compound: CN1C(=O)C2C(C1=O)C1C=C(c3ccc(CO)cc3)C2C(c2cccs2)N1C (centres undefined)
0.495

Try this compound next: COC(=O)[C@@]1(Cc2ccccc2CN=[N+]=[N-])COC(c2ccc(OCCCO)cc2)=N1
-0.322

====

assayInfo: small-molecule microarray binders of probe aNog, primary screen, biochemical, biotinylated probe, 635/667 nm fluorescence (AID 1115);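 further: probe is biotinylated aNog protein used at 0.15 µg/mL for 1 h at 4 C; z-score combines 667 nm fluorescence of each spot with its signal to noise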
testConditions: higher = more signal
quantity: composite z-score
// no unit, no text: just the number

molecule: COc1ccc(C(O)C2C=CC3C(=O)N(C)C(=O)C3N2Nc2ccc([N+](=O)[O-])cc2[N+](=O)[O-])cc1OCc1ccccc1 (stereo not given)
reportedValue: 1.38
--
molecule: CCN(CC)c1ccc(N2CC=CC34O[C@@H]5C=CCOC(=O)[C@@H]5[C@H]3C(=O)N(CCCO)[C@@H]4C2=O)cc1 (stereo not given in full)
reportedValue: 0.223
--
molecule: COc1ccccc1CN1C(=O)c2ccccc2[C@](Cc2ccccc2I)(C(=O)NCCCN(C)C)[C@@H]1c1ccc(CO)cc1
reportedValue: 1.44

What value of composite z-score has been reported for the following molecule? O=C1c2ccccc2[C@@]2(Cc3ccccc3N(Cc3ccccc3)C2=O)[C@H](c2ccc(CO)cc2)N1Cc1ccccc1
-0.36

Follow-up entry: COc1ccc([Si](C)(C)[C@H]2[C@H](CCn3cc([C@H](O)c4ccccc4)nn3)O[C@@]3(C(=O)N(C)c4c(Br)cc(C)cc43)[C@@H]2C)cc1
-0.411

Repeat for the following molecule: COCCOC(=O)N1C(=O)[C@@]2(c3cc(C#CC4=CCCCC4)ccc31)[C@H](C(=O)N1CCN(c3ncccn3)CC1)[C@H]1C(=O)O[C@H](c3ccccc3)[C@H](c3ccccc3)N1[C@@H]2c1ccccc1OCCO
-0.0845

Repeat with COCCCNC(=O)[C@@]1(Sc2ccc(C)cc2)CC(=O)N(C2CCCCC2)[C@@H]1c1ccc(CO)cc1I
-0.631

Cool, now CCCCCCCCCCC(O)C1C=CC2C(=O)N(C)C(=O)C2N1N1CCCCC1 (stereo not given)
0.715

Queued: O=C(NCC(F)(F)F)[C@@H]1c2ccccc2C(=O)N(CC23CC4CC(CC(C4)C2)C3)[C@H]1c1ccc(CO)cc1
-0.222

Consider next the molecule CCCC=C(CCC)[C@@H](NC(=O)c1ccco1)c1ccc(C(=O)OC)cc1 in the same way.
1.69

Also, C=CCC(OC(C)=O)[C@@H]1[C@@H](N(Cc2cc3ccccc3o2)C(=O)Cc2ccc(OC)cc2)c2cc(OCCCO)ccc2N1C(=O)Cc1ccc(OC)cc1 (stereo not given in full) please.
-0.303

Same question, COCCOC(=O)N1C(=O)[C@@]2(c3cc(C#CC4=CCCCC4)ccc31)[C@H](c1ccc(OCCO)cc1)N1[C@H](c3ccccc3)[C@H](c3ccccc3)OC(=O)[C@H]1[C@@H]2C(=O)N1CCCCCCC1 this time
1.33

Here is the next molecule: C[N+](C)(C)CCCCCCNC(=O)[C@H]1C[C@H]2C(=O)NCC(=O)N2[C@H]1c1cccc(OCCO)c1
-0.231

Consider next the molecule C=CC[C@]1(C(=O)NCCCOC)N=C(c2ccc(OCCCO)cc2)O[C@H]1c1ccccc1 in the same way.
0.328

Same again, this time with CN(C)C(=O)[C@]1(Cc2ccccc2)N=C(c2ccc(OCCCO)cc2)O[C@@H]1c1ccccc1
1.43
